biological target: Heat shock factor protein 1 (Mus musculus); assay: inhibition of MG132-induced HSE-luciferase signal, confirmation, cell-based, NIH3T3, luminescence, dose retest (AID 2382); assay type: functional;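 note: NIH3T3 fibroblasts with HSF1-driven luciferase reporter stressed by proteasome inhibitor MG132; luminescence from HSF1-driven luciferase expression after 8 hours of MG132 stress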
Sequence (P38532 whole entry): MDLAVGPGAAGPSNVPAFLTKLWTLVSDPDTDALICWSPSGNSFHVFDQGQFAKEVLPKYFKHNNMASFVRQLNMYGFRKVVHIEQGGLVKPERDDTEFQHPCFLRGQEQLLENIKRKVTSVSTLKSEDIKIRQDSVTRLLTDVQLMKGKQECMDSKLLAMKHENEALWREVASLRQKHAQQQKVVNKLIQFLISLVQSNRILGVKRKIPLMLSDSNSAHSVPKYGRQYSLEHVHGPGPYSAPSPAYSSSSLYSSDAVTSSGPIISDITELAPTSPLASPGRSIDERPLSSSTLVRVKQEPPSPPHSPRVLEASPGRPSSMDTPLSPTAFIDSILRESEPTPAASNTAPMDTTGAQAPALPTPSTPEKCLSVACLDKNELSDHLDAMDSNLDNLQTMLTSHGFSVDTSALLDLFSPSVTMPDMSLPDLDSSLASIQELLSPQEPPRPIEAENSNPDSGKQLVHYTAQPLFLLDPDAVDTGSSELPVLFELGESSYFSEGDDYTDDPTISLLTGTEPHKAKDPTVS
Calls of active or inactive are those of the source.
Give EC50 for every item shown.

Ask: For Heat shock factor protein 1 (Mus musculus), give the measured EC50 of the entry `O=C(O)c1cc(-c2cccc3ccccc23)nc2ccccc12`
Result: > 195 µM (not active)

Ask: For Heat shock factor protein 1 (Mus musculus), give the measured EC50 of the entry `CCOc1ccc(-c2cnc(NCc3cccc4ccccc34)n2CCOC)cc1`
Result: > 195 µM (not active)

Ask: For Heat shock factor protein 1 (Mus musculus), give the measured EC50 of the entry `Nc1c(C(=O)O)sc2nc(-c3ccccc3)cc(-c3ccc(Cl)cc3)c12`
Result: > 195 µM (not active)

Ask: For Heat shock factor protein 1 (Mus musculus), give the measured EC50 of the entry `CCN(CCCNC(=O)CCn1c(=O)[nH]c2ccsc2c1=O)c1ccccc1`
Result: > 195 µM (not active)

Ask: For Heat shock factor protein 1 (Mus musculus), give the measured EC50 of the entry `CC(C)(C)c1ccc(C(=O)Nc2cccc3c(=O)[nH][nH]c(=O)c23)cc1`
Result: 3.66 µM (active)

Ask: For Heat shock factor protein 1 (Mus musculus), give the measured EC50 of the entry `NC(=O)c1cc2ccncc2c2ccccc12`
Result: 4.29 µM (active)

Ask: For Heat shock factor protein 1 (Mus musculus), give the measured EC50 of the entry `CS(=O)(=O)N1CCN(c2cccc(Cl)n2)CC1`
Result: > 195 µM (not active)

====

tested on: Streptococcus sp. 'group A'; assay: growth inhibition of control SK(-) GAS strain, dose response, counter-screen for streptokinase expression inhibitor project, luminescence, kanamycin, BacTiterGlo, confirmation (AID 1900); format: functional, organism-based
Calls of active or inactive are those of the source.
observedProperty: EC50

Ask: Please indicate EC50 recorded for `O=C(Cc1ccc(Br)cc1)Nc1nc2ccccc2[nH]1`
Result: > 150 µM (not active)

Ask: Please indicate EC50 recorded for `C/C(=N\Nc1nc(N2CCCCCC2)nc(N2CCCCCC2)n1)c1ccccc1`
Result: 7.16 µM (active)

Ask: Please indicate EC50 recorded for CC(C)=CCC/C(C)=C/Cc1c(O)ccc(C(=O)/C=C/c2ccc(O)cc2)c1O [XANTHOANGELOL]
Result: 1.05 µM (active)

Ask: Please indicate EC50 recorded for `Cc1ccc(NC(=O)CN2C(=O)S/C(=C/c3ccc(-c4cc(C(=O)O)ccc4C)o3)C2=O)cc1C`
Result: 2.31 µM (active)

====

molecular target: Sentrin-specific protease 8 (Homo sapiens, UniProt Q96LD8); experiment: SENP8 protease inhibitors, SAR follow-up, biochemical, luminescence (AID 504501); assay type: functional
Sequence (Q96LD8 whole entry): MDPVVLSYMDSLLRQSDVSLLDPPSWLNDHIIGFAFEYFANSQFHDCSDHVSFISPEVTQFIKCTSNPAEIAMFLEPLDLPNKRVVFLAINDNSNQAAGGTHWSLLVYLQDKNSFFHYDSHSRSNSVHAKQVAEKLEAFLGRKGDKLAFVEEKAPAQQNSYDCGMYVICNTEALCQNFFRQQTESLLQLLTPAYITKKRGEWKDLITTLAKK
The source made the active and inactive calls.
observedProperty: IC50

Ask: Please indicate IC50 recorded for `CC(C)(C)c1ccc2c(c1)C(=O)c1ccccc1C2=O`
Result: 1120 nM (active)

Ask: Please indicate IC50 recorded for `CCCCNc1cc(NC(C)=O)cc2cc(OC)c(OC)cc12`
Result: > 99000 nM (inactive)

Ask: Please indicate IC50 recorded for `O=C(Nc1nc2ccccc2s1)c1ccsc1`
Result: 1400 nM (active)

Ask: Please indicate IC50 recorded for `O=C(Nc1nc2ccc(Cl)cc2s1)c1cccs1`
Result: 1500 nM (active)
